- experimental system: Fucose-binding lectin PA-IIL (Pseudomonas aeruginosa (strain ATCC 15692 / DSM 22644 / CIP 104116 / JCM14847 / LMG 12228 / 1C / PRS 101 / PAO1), UniProt Q9HYN5)
- Sequence (Q9HYN5 1-115): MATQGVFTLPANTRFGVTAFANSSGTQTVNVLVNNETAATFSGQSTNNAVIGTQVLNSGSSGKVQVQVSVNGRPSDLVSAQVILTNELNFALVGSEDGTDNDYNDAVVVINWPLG
- experiment: Inhibition of N-(Fluorescein-5-yl)-N'-(alpha-L-fucopyranosyl ethylen)thiocarbamide binding to Pseudomonas aeruginosa PA14 LecB after 22 to 24 hrs by fluorescence polarization assay
metric: pIC50
Numbers only, as −log10 of the molar value.

-- ask Look up pIC50 for this compound: Cc1cc(C)c(S(=O)(=O)NC[C@H]2O[C@@H](C)[C@@H](O)[C@@H](O)[C@@H]2O)c(C)c1
-- reply 6.47
